tested on: Fibroblast; assay: Multiplex assay against human fibroblast; format: toxicity, cell-based; settings: 24 h, 10 µM, compound concentration 10 uM, replicate 1
OBSERVABLE: Population Normal (%)
Provide only the numeric value, understood in %.

Please tell me: Population Normal (%) of Cc1cccc(NC(=O)CN2CCC(c3ccccn3)CC2)c1.Cl.Cl , system Fibroblast? 92

Now try CCCCC(=O)N(Cc1ccc(-c2ccccc2-c2nnn[nH]2)cc1)[C@H](C(=O)O)C(C)C . 97

Now try CN1CCN(c2cc(-c3ccccc3)nc(N)n2)CC1 . 97

Now try O=C1[C@H](Cc2ccc(O)cc2)N2C(=O)CCN(C(=O)NCc3ccccc3)[C@H]2CN1Cc1cccc2ccccc12 . 89

---

Property: Population Normal (%); scope: individual compounds
system: Fibroblast; assay: Multiplex assay against human fibroblast; type: toxicity, cell-based; settings: 48 h, 10 µM, compound concentration 10 uM, replicate 2
Provide only the numeric value, understood in %.

Examples with their reported Population Normal (%) follow.
Which Population Normal (%) value is on record for CC(C)(C)c1cc(NC(=O)Nc2ccc(-c3cn4c(n3)sc3cc(OCCN5CCOCC5)ccc34)cc2)no1 ? 96

Now try NCCc1cn(S(=O)(=O)c2c(Cl)nc3sccn23)c2ccccc12.O=C(O)C(=O)O . 96

Now try Cl.N=C(N)NC(=O)Cc1c(Cl)cccc1Cl [GUANFACINE HYDROCHLORIDE] . 93

Now try Cl.NCCc1ccc(O)c(O)c1 [DOPAMINE HYDROCHLORIDE] . 99

Now try O=C1[C@H](Cc2ccc(O)cc2)N2C(=O)CCN(C(=O)NCc3ccccc3)[C@H]2CN1Cc1cccc2ccccc12 . 89

***
Which Population Normal (%) value is on record for CC(C)c1noc(N2CCC(COc3ccc(-c4ccc(S(C)(=O)=O)cc4)nc3)CC2)n1 ? 100

Now try Cc1sc2c(c1C)C(c1ccc(Cl)cc1)=N[C@@H](CC(=O)NCCCCCCCCNC(=O)COc1cccc3c1C(=O)N(C1CCC(=O)NC1=O)C3=O)c1nnc(C)n1-2 (stereo partly drawn) . 84

Now try COc1cccc2c1c(NS(=O)(=O)c1ccc(Cl)s1)nn2Cc1cccc(CNC(=O)C(C)(C)O)c1 . 93

---

Property: Population Healthy Nuclei (%); scope: individual molecules
tested on: U2OS; assay: Multiplex assay against U2OS; assay type: toxicity, cell-based; conditions: human, 48 h, 10 µM, compound concentration 10 uM, replicate 1
Put your answer as a value accompanied by its unit after it.

Examples with their reported Population Healthy Nuclei (%) follow.
Which Population Healthy Nuclei (%) value is on record for CC(C)c1noc(N2CCC(COc3ccc(-c4ccc(S(C)(=O)=O)cc4)nc3)CC2)n1 [GSK-1292263] ? 68%

Now try O=C(CCCc1ccccc1)Nc1nc2ccccc2c(=O)s1 . 70%

Now try CCCCCC(O)/C=C/[C@H]1C(=O)CC(O)C1C/C=C\CCCC(=O)O (stereo not given in full) . 67%

***
Which Population Healthy Nuclei (%) value is on record for O=C(NCCN1CCC(n2c(=O)[nH]c3cc(Cl)ccc32)CC1)c1ccc(F)cc1 [HALOPEMIDE] ? 69%

Now try Cl.N=C(N)NC(=O)Cc1c(Cl)cccc1Cl [GUANFACINE HYDROCHLORIDE] . 68%
